Target: human ether-à-go-go-related gene (hERG) potassium channel (human, UniProt Q12809)
Sequence (Q12809 whole entry, looked up): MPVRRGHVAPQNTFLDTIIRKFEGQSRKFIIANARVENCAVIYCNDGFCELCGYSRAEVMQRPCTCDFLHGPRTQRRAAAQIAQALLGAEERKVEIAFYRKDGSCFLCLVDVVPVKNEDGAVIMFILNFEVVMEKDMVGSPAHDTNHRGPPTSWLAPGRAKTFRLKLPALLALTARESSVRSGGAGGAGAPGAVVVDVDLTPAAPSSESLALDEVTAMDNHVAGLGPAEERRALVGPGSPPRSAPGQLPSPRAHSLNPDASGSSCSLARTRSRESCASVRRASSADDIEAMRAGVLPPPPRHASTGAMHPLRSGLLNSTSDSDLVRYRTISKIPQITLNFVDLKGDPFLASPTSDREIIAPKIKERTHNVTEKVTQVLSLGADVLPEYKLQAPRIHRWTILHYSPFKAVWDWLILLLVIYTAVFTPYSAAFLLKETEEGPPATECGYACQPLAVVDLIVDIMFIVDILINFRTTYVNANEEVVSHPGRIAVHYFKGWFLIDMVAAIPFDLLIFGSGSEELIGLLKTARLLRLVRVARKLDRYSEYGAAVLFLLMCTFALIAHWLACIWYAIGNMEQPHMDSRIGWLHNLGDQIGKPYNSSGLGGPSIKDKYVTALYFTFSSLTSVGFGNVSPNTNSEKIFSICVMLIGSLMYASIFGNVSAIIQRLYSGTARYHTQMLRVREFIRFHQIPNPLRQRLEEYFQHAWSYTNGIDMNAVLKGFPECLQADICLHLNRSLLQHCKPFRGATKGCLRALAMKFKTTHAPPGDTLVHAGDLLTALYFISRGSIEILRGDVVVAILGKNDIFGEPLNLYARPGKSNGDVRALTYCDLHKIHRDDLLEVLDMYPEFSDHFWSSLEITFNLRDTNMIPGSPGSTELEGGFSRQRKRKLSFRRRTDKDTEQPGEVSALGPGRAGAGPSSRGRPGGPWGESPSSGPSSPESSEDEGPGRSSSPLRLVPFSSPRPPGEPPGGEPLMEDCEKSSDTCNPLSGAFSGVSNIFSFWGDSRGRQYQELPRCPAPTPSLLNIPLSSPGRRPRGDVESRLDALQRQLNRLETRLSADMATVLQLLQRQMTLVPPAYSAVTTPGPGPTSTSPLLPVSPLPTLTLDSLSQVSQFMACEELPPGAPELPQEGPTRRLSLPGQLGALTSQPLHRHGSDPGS
Assay: primary screen, population patch clamp on CHO cells stably expressing hERG; higher = less effect of the substance
In all, about 310,000 compounds went through this assay and about 14,000 (4.5%) showed an effect of 50% or more. The effect is printed as a negative number. The entries come from a sample that favours strong results as a whole.
PROPERTY NAME: hERG current change (%, negative = inhibition) at 10uM (%)
Enter your answer as a number in %; do not include the unit.

Field: example entries. Status: answers known.
compound=O=C(O)C(=O)O.c1ccc(COc2ccc(OCCCNC3CCCC3)cc2)cc1 reported_result=-57.1
compound=Cc1ccc(S(=O)(=O)N2CCN(C(=O)c3ccc(S(=O)(=O)N4CCCC4)cc3)CC2)cc1 reported_result=-6.64
compound=Cc1ccc(C)c(OCCCNC2CCCC2)c1C.O=C(O)C(=O)O reported_result=-10.3
compound=Cc1ccc(OCCCNC2CCCC2)cc1 reported_result=-0.454
compound="CC(CSc1nnnn1-c1ccccc1)Cn1c(N2CCN(C)CC2)nc2c1c(=O)[nH]c(=O)n2C (stereo not shown)" reported_result=-43.6

Which hERG current change (%, negative = inhibition) at 10uM is reported with human ether-à-go-go-related gene (hERG) potassium channel (human, UniProt Q12809) for this entry: CC(C)(C)c1ccc(OCCCNC2CCCC2)cc1.O=C(O)C(=O)O ? -54.5

Record: CC(C)(C)c1ccc(OCCCNCc2ccccc2)cc1.O=C(O)C(=O)O -19.5

Record: O=C(O)C(=O)O.c1cc2c(cc1OCCNC1CCCC1)CCC2 0.00128

Record: COc1cccc(OC)c1OCCCNC1CCCC1.O=C(O)C(=O)O -7.84

Record: Cc1nnc(SCc2nnc(-c3ccccc3Br)o2)n1-c1ccccc1 -14.6

====

Target: human ether-à-go-go-related gene (hERG) potassium channel (human, UniProt Q12809);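 also: peak tail current of the secondary pulse compared with the same well before compound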
Assay: primary screen, population patch clamp on CHO cells stably expressing hERG; higher = less effect of the substance
The whole screen tested about 310,000 compounds, of which about 14,000 (4.5%) showed an effect of 50% or more. Effects have a minus sign here. For the sample, strong results were picked, then their nearest neighbours and some compounds at random.
Items are presented alongside their recorded hERG current change (%, negative = inhibition) at 10uM.
Enter your answer as a number in %; do not include the unit.

Field: example entries. Status: answers known.
smiles_text=CCc1ccc(OCC(=O)NNC(=O)c2nn(CC)c(=O)c3ccccc23)cc1 tgt="human ether-à-go-go-related gene (hERG) potassium channel (human, UniProt Q12809)" reported_result=-57.9
smiles_text=O=c1c2ccccc2nc(SCc2ccc([N+](=O)[O-])cc2)n1CCCO tgt="human ether-à-go-go-related gene (hERG) potassium channel (human, UniProt Q12809)" reported_result=-57.9
smiles_text=C/C(=N\NC(=O)c1ccccc1O)C1C(=O)c2ccccc2C1=O tgt="human ether-à-go-go-related gene (hERG) potassium channel (human, UniProt Q12809)" reported_result=-0.25
smiles_text=O=C(c1nc2ccccn2c1CNCCCn1cccn1)N1CCCC1 tgt="human ether-à-go-go-related gene (hERG) potassium channel (human, UniProt Q12809)" reported_result=-12.1
smiles_text=CCOc1cc(C)c(S(=O)(=O)Nc2ccc3cn[nH]c3c2)cc1C tgt="human ether-à-go-go-related gene (hERG) potassium channel (human, UniProt Q12809)" reported_result=25.2
smiles_text=O=C(COC(=O)/C=C/c1cccs1)Nc1nc(-c2ccccc2)cs1 tgt="human ether-à-go-go-related gene (hERG) potassium channel (human, UniProt Q12809)" reported_result=12.1

What does the record list as hERG current change (%, negative = inhibition) at 10uM for O=c1cc(CSc2ccccn2)c2ccccc2[nH]1 ? 9.52

====

Items are presented alongside their recorded hERG current change (%, negative = inhibition) at 10uM.
Biological target: human ether-à-go-go-related gene (hERG) potassium channel (human, UniProt Q12809);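 also: peak tail current of the secondary pulse compared with the same well before compound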
Experiment: primary screen, population patch clamp on CHO cells stably expressing hERG; higher = less effect of the substance
The campaign covered roughly 310,000 compounds. About 14,000 (4.5%) showed an effect of 50% or more. The effect is printed as a negative number. For the sample, strong results were picked, then their nearest neighbours and some compounds at random.
Enter your answer as a number in %; do not include the unit.

molecule=Cn1nc(C(=O)NC2CCCCC2)c2c1-c1ccccc1S(=O)(=O)C2 tgt="human ether-à-go-go-related gene (hERG) potassium channel (human, UniProt Q12809)" reported_result=11.7
molecule=CCCCN(CC)CCCNC(=O)c1cn(-c2ccc(OC)cc2)c(=O)c2ccccc12 tgt="human ether-à-go-go-related gene (hERG) potassium channel (human, UniProt Q12809)" reported_result=-56.5
molecule=O=C(c1ccc(S(=O)(=O)N2CCCC2)cc1)N1CCN(Cc2ccc3c(c2)OCO3)CC1 tgt="human ether-à-go-go-related gene (hERG) potassium channel (human, UniProt Q12809)" reported_result=-28
molecule=COCCn1c(CN2CCN(c3cccc(Cl)c3)CC2)nc2c1c(=O)n(C)c(=O)n2C tgt="human ether-à-go-go-related gene (hERG) potassium channel (human, UniProt Q12809)" reported_result=-53.9
molecule=CCOC(=O)c1ccc(-c2ccc(CO)o2)cc1 tgt="human ether-à-go-go-related gene (hERG) potassium channel (human, UniProt Q12809)" reported_result=-6.44
molecule=O=C(COc1ccc(C(=O)O)cc1)Nc1cccc(C(F)(F)F)c1 tgt="human ether-à-go-go-related gene (hERG) potassium channel (human, UniProt Q12809)" reported_result=22.5
molecule=CCOc1ccc(NC(=O)COc2ccc(C(=O)N3CCC(C(N)=O)CC3)cc2OC)cc1 tgt="human ether-à-go-go-related gene (hERG) potassium channel (human, UniProt Q12809)" reported_result=9.91
molecule=COCCn1c(CN2CCN(c3ccccc3)CC2)nc2c1c(=O)n(C)c(=O)n2C tgt="human ether-à-go-go-related gene (hERG) potassium channel (human, UniProt Q12809)" reported_result=-13.8

What does the record list as hERG current change (%, negative = inhibition) at 10uM for CCOC(=O)C1CCN(C(=O)c2ccc(OCC(=O)Nc3cccc(C(F)(F)F)c3)c(OC)c2)CC1 ? -61.9

Record: OC(c1ccc2c(c1)OCO2)c1nccc2ccccc12 (stereo not drawn) -1.04

Record: CCCCN(CC)CCNC(=O)c1cn(C)c(=O)c2c1c1ccccc1n2C -24.6

Record: Cn1c(SCC(=O)N2CCCC2)nnc1-c1cccs1 4.73

====

Biological target: human ether-à-go-go-related gene (hERG) potassium channel (human, UniProt Q12809);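 also: peak tail current of the secondary pulse compared with the same well before compound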
Experiment: primary screen, population patch clamp on CHO cells stably expressing hERG; higher = less effect of the substance
The campaign covered roughly 310,000 compounds. About 14,000 (4.5%) showed an effect of 50% or more. Effects have a minus sign here. The full list was thinned out, with strong results kept by preference.
Rule: 1 for hERG current change (%, negative = inhibition) at 10uM not less than -40%, 0 for anything less.

These solved cases illustrate the format of a correct answer.
molecule="COc1ccc(N2CCN(C(=O)C3CCCN(S(=O)(=O)c4cccc5cccnc45)C3)CC2)cc1 (centres unmarked)" tgt="human ether-à-go-go-related gene (hERG) potassium channel (human, UniProt Q12809)" assigned_category=1
molecule=Cc1nc(-c2nc(-c3c(C(=O)NNC(=O)c4ccc(Cl)cc4)noc3C)cs2)cs1 tgt="human ether-à-go-go-related gene (hERG) potassium channel (human, UniProt Q12809)" assigned_category=1
molecule="O=C(Nc1ccc(F)cc1)C1CCCN(S(=O)(=O)c2cccc3cccnc23)C1 (centres unmarked)" tgt="human ether-à-go-go-related gene (hERG) potassium channel (human, UniProt Q12809)" assigned_category=0

// switching to the query molecule
Determine whether this molecule has hERG current change (%, negative = inhibition) at 10uM no lower than -40%: CCC(C)(C)NC(=O)CN(C(=O)CCC(=O)Nc1ccccn1)c1ccc(F)c(Cl)c1 1

====

Target: human ether-à-go-go-related gene (hERG) potassium channel (human, UniProt Q12809);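 also: peak tail current of the secondary pulse compared with the same well before compound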
Test: primary screen, population patch clamp on CHO cells stably expressing hERG; higher = less effect of the substance
The campaign covered roughly 310,000 compounds. About 14,000 (4.5%) showed an effect of 50% or more. Effects have a minus sign here. This excerpt belongs to a sample that is enriched for strong results.
PROPERTY NAME: hERG current change (%, negative = inhibition) at 10uM (%)
Enter your answer as a number in %; do not include the unit.

Field: example entries. Status: answers known.
smiles_text=COc1ccccc1Nc1nc(C)cc(=O)[nH]1 reported_result=-7.91
smiles_text=COc1ccc(NC(=O)c2cc([N+](=O)[O-])ccc2N2CCCCC2)cc1 reported_result=4.86
smiles_text=CCCOc1ccc(/C=C2\SC(N)=NC2=O)cc1OC reported_result=3.66
smiles_text=COC(=O)c1ccc(N=C(c2ccccc2)c2c(O)n(C)c(=O)n(C)c2=O)cc1 reported_result=6.79
smiles_text=CN(CCO)c1nc(N)c2c(N)nc3c(c2c1C#N)CC(=O)N3Cc1cccs1 reported_result=-29.6

What does the record list as hERG current change (%, negative = inhibition) at 10uM for Cc1ccc(NC(=O)c2cc([N+](=O)[O-])ccc2N2CCCC2)cc1 ? -0.291

Record: CCOC(=O)c1c(-c2ccccc2)csc1NC(=O)c1nn(CC)cc1Br 6.4
